# method notes: NCI Yeast Anticancer Drug Screen. Data for the sgs1 mgt1 strain (AID 161);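 also: 0% = growth of cultures given vehicle only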
# condition: S. cerevisiae sgs1 mgt1 strain, at 5.0 µM (retest, dose inferred, filed as 0.5), active compounds read high
Compounds without any hit were thinned out: in the full panel of roughly 79,000, 15% have a hit. Activity calls are given as the source filed them. Rule as the data show it: active = growth inhibition above about 70%; inactive = the rest.
metric: growth inhibition

Known results for compounds:
CC(C)(C)N1C(=O)C(Cl)(C#N)C1c1ccccc1 (stereo not given)	-3% (inactive)
CN(C)CCCNc1ccc(O)c2c1C(=O)c1ccccc1C2=O	96% (active)
Cc1cc2c(C(C)C)c(O)c(O)c(C=Nc3ccc(C(=O)O)cc3)c2c(O)c1-c1c(C)cc2c(C(C)C)c(O)c(O)c(C=Nc3ccc(C(=O)O)cc3)c2c1O	34% (inactive)
Nc1ccc(C(=O)N/C(=C\c2ccc3c(c2)OCO3)c2nc3ccccc3s2)cc1	54% (inactive)

Consider the additional compound presented here.
Check the records and state growth inhibition for O=C(C[n+]1ccccc1Cl)c1ccc(Oc2ccc(C(=O)C[n+]3ccccc3Cl)cc2)cc1 -11% (inactive)
